# Target entity: EP2 receptor (Homo sapiens, UniProt P43116)
# Sequence (P43116 whole entry): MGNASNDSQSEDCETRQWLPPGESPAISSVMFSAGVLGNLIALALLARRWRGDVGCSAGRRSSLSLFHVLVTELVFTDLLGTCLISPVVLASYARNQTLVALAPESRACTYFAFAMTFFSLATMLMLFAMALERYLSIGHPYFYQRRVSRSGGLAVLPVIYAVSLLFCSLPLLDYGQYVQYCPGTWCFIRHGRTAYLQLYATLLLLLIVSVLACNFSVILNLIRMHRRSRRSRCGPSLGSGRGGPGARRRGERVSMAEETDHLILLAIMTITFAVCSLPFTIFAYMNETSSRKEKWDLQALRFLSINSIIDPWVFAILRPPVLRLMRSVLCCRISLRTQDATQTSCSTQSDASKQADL
# Test method notes: EP2 Potency Assay (cAMP TR-FRET, CHO-K1 cells transfected with EP2 receptor, PGE2 at EC80)
# Measurement conditions: CHO-K1 cells expressing EP2, prostaglandin E2 at EC80, read-out: EP2 Potency (IC50 category)
Experimental readout: IC50

compound=COc1ncc(CN2CCOc3c(Cl)cc(-n4ccc5nc(Cl)ccc54)cc3C2)cn1 target_entity="EP2 receptor (Homo sapiens, UniProt P43116)" measured_result="1000 to 5000 nM"
compound=O=c1ncc(CN2CCOc3c(Cl)cc(-n4ccc5cc(F)ccc54)cc3C2)c(O)[nH]1 target_entity="EP2 receptor (Homo sapiens, UniProt P43116)" measured_result="1000 to 5000 nM"
compound=COc1ncc(CN2CCOc3c(Cl)cc(-n4ccc5nccnc54)cc3C2)cn1 target_entity="EP2 receptor (Homo sapiens, UniProt P43116)" measured_result="> 5000 nM"
compound=[2H]C1([2H])Oc2c(Cl)cc(-n3ccc4cc(F)ccc43)cc2CN(Cc2cc[nH]c(=O)c2)C1([2H])[2H] target_entity="EP2 receptor (Homo sapiens, UniProt P43116)" measured_result="< 100 nM"
compound="COc1cc(C(C)N2CCOc3c(Cl)cc(-n4ccc5cc(F)ccc54)cc3C2)ccn1 (racemic)" target_entity="EP2 receptor (Homo sapiens, UniProt P43116)" measured_result="> 5000 nM"
compound=COc1ncc(CN2CCOc3c(Cl)cc(-n4ccc5cccnc54)cc3C2)cn1 target_entity="EP2 receptor (Homo sapiens, UniProt P43116)" measured_result="1000 to 5000 nM"
compound=COc1ncc(CN2CCOc3c(Cl)cc(-n4ccc5c(F)c(F)ccc54)cc3C2)cn1 target_entity="EP2 receptor (Homo sapiens, UniProt P43116)" measured_result="100 to 500 nM"
compound=COc1ncc(CN2CCOc3c(Cl)cc(N4Cc5ccccc5C4=O)cc3C2)cn1 target_entity="EP2 receptor (Homo sapiens, UniProt P43116)" measured_result="> 5000 nM"

###

# Target entity: EP2 receptor (Homo sapiens, UniProt P43116)
# Test method notes: EP2 Potency Assay (cAMP TR-FRET, CHO-K1 cells transfected with EP2 receptor, PGE2 at EC80)
# Measurement conditions: CHO-K1 cells expressing EP2, prostaglandin E2 at EC80, read-out: EP2 Potency (IC50 category)
Experimental readout: IC50

molecule="COCC1COc2c(Cl)cc(-n3ccc4cc(F)ccc43)cc2CN1Cc1cc[nH]c(=O)c1 (centres unmarked)" target_entity="EP2 receptor (Homo sapiens, UniProt P43116)" experimental_readout=IC50 measured_result="1000 to 5000 nM"
molecule=O=c1nccc(CN2CCOc3c(Cl)cc(-n4ccc5cc(F)ccc54)cc3C2)[nH]1 target_entity="EP2 receptor (Homo sapiens, UniProt P43116)" experimental_readout=IC50 measured_result="> 5000 nM"
molecule=O=c1ncc(CN2CCOc3c(Cl)cc(-n4ccc5cc(F)cnc54)cc3C2)c[nH]1 target_entity="EP2 receptor (Homo sapiens, UniProt P43116)" experimental_readout=IC50 measured_result="1000 to 5000 nM"
molecule=Fc1ccc2c(ccn2-c2cc(Cl)c3c(c2)CN(Cc2ccccc2C(F)F)CCO3)c1 target_entity="EP2 receptor (Homo sapiens, UniProt P43116)" experimental_readout=IC50 measured_result="> 5000 nM"
molecule=OCc1ncc(CN2CCOc3c(Cl)cc(-n4ccc5cc(F)ccc54)cc3C2)cn1 target_entity="EP2 receptor (Homo sapiens, UniProt P43116)" experimental_readout=IC50 measured_result="500 to 1000 nM"
molecule=N#Cc1ccc2c(ccn2-c2cc(Cl)c3c(c2)CN(Cc2cnc(=O)[nH]c2)CCO3)c1 target_entity="EP2 receptor (Homo sapiens, UniProt P43116)" experimental_readout=IC50 measured_result="1000 to 5000 nM"
molecule=COCc1ncc(CN2CCOc3c(Cl)cc(-n4ccc5cc(F)ccc54)cc3C2)cn1 target_entity="EP2 receptor (Homo sapiens, UniProt P43116)" experimental_readout=IC50 measured_result="100 to 500 nM"
molecule=CNc1ncc(CN2CCOc3c(Cl)cc(-n4ccc5cc(F)ccc54)cc3C2)cn1 target_entity="EP2 receptor (Homo sapiens, UniProt P43116)" experimental_readout=IC50 measured_result="100 to 500 nM"
molecule=O=c1ncc(CN2CCOc3c(Cl)cc(-n4ccc5cnccc54)cc3C2)c[nH]1 target_entity="EP2 receptor (Homo sapiens, UniProt P43116)" experimental_readout=IC50 measured_result="> 5000 nM"
molecule=Oc1ncc(CN2CCOc3c(Cl)cc(-n4ccc5cc(F)ccc54)cc3C2)c(Cl)n1 target_entity="EP2 receptor (Homo sapiens, UniProt P43116)" experimental_readout=IC50 measured_result="1000 to 5000 nM"
molecule=O=c1ncc(CN2CCOc3c(Cl)cc(-n4ccc5cc(Cl)ncc54)cc3C2)c[nH]1 target_entity="EP2 receptor (Homo sapiens, UniProt P43116)" experimental_readout=IC50 measured_result="> 5000 nM"
molecule=NCc1ncc(CN2CCOc3c(Cl)cc(-n4ccc5cc(F)ccc54)cc3C2)cn1 target_entity="EP2 receptor (Homo sapiens, UniProt P43116)" experimental_readout=IC50 measured_result="100 to 500 nM"
molecule=COc1ncc(CN2CCOc3c(Cl)cc(-n4ccc5cnccc54)cc3C2)cn1 target_entity="EP2 receptor (Homo sapiens, UniProt P43116)" experimental_readout=IC50 measured_result="> 5000 nM"
molecule=COc1ncc(CN2CCOc3c(Cl)cc(-n4ccc5cc(F)c(Cl)cc54)cc3C2)cn1 target_entity="EP2 receptor (Homo sapiens, UniProt P43116)" experimental_readout=IC50 measured_result="> 5000 nM"
molecule=O=c1[nH]ccc(CN2CCOc3c(Cl)cc(-n4ccc5cc(F)ccc54)cc3C2)c1F target_entity="EP2 receptor (Homo sapiens, UniProt P43116)" experimental_readout=IC50 measured_result="< 100 nM"
molecule=COc1ncc(CN2CCOc3c(Cl)cc(N4CCOc5cc(F)ccc54)cc3C2)cn1 target_entity="EP2 receptor (Homo sapiens, UniProt P43116)" experimental_readout=IC50 measured_result="> 5000 nM"
molecule=O=c1ncc(CN2CCOc3c(Cl)cc(-n4ccc5cc(Cl)ccc54)cc3C2)c[nH]1 target_entity="EP2 receptor (Homo sapiens, UniProt P43116)" experimental_readout=IC50 measured_result="100 to 500 nM"

###

# Target entity: EP2 receptor (Homo sapiens, UniProt P43116)
# Test method notes: EP2 Potency Assay (cAMP TR-FRET, CHO-K1 cells transfected with EP2 receptor, PGE2 at EC80)
# Measurement conditions: CHO-K1 cells expressing EP2, prostaglandin E2 at EC80, read-out: EP2 Potency (IC50 category)
Reported IC50 values for a set of compounds
Experimental readout: IC50

compound_structure_string=O=c1cc[nH]cc1CN1CCOc2c(Cl)cc(-n3ccc4cc(F)ccc43)cc2C1 target_entity="EP2 receptor (Homo sapiens, UniProt P43116)" measured_result="1000 to 5000 nM"
compound_structure_string=Cc1[nH]c(=O)ncc1CN1CCOc2c(Cl)cc(-n3ccc4cc(F)ccc43)cc2C1 target_entity="EP2 receptor (Homo sapiens, UniProt P43116)" measured_result="< 100 nM"
compound_structure_string=Fc1ccc2c(ccn2-c2cc(Cl)c3c(c2)CN(Cc2ccnc(C4CNC4)c2)CCO3)c1 target_entity="EP2 receptor (Homo sapiens, UniProt P43116)" measured_result="> 5000 nM"
compound_structure_string=C[C@@H]1COc2c(Cl)cc(-n3ccc4cc(F)ccc43)cc2CN1Cc1cc[nH]c(=O)n1 target_entity="EP2 receptor (Homo sapiens, UniProt P43116)" measured_result="500 to 1000 nM"
compound_structure_string=Fc1ccc2c(ccn2-c2cc(Cl)c3c(c2)CN(Cc2nnco2)CCO3)c1 target_entity="EP2 receptor (Homo sapiens, UniProt P43116)" measured_result="1000 to 5000 nM"
compound_structure_string=Cc1c(CN2CCOc3c(Cl)cc(-n4ccc5cc(F)ccc54)cc3C2)cc[nH]c1=O target_entity="EP2 receptor (Homo sapiens, UniProt P43116)" measured_result="< 100 nM"
compound_structure_string=Fc1ccc2c(ccn2-c2cc(Cl)c3c(c2)CN(Cc2cccs2)CCO3)c1 target_entity="EP2 receptor (Homo sapiens, UniProt P43116)" measured_result="> 5000 nM"
compound_structure_string=O=c1cc(CN2CCOc3c(Cl)cc(-n4ccc5cc(F)ccc54)cc3C2)cn[nH]1 target_entity="EP2 receptor (Homo sapiens, UniProt P43116)" measured_result="< 100 nM"
compound_structure_string=COc1ncc(CN2CCOc3c(Cl)cc(N4CCSc5ccccc54)cc3C2)cn1 target_entity="EP2 receptor (Homo sapiens, UniProt P43116)" measured_result="> 5000 nM"

###

# Target entity: EP2 receptor (Homo sapiens, UniProt P43116)
# Test method notes: EP2 Potency Assay (cAMP TR-FRET, CHO-K1 cells transfected with EP2 receptor, PGE2 at EC80)
# Measurement conditions: CHO-K1 cells expressing EP2, prostaglandin E2 at EC80, read-out: EP2 Potency (IC50 category)
pIC50: −log10 of the molar value.
Experimental readout: pIC50

compound_structure_string=Fc1ccc2c(ccn2-c2cc(Cl)c3c(c2)CN(Cc2nncs2)CCO3)c1 experimental_readout=pIC50 measured_result="5.30 to 6.00"
compound_structure_string=COc1ncc(CN2CCOc3c(Cl)cc(-n4ccc5cc(C(F)(F)F)ccc54)cc3C2)cn1 experimental_readout=pIC50 measured_result="< 5.30"
compound_structure_string=O=c1ncc(CN2CCOc3c(Cl)cc(-c4coc5ccccc45)cc3C2)c[nH]1 experimental_readout=pIC50 measured_result="6.30 to 7.00"
compound_structure_string=Fc1ccc2c(ccn2-c2cc(Cl)c3c(c2)CN(Cc2nsc(Cl)n2)CCO3)c1 experimental_readout=pIC50 measured_result="< 5.30"
compound_structure_string=[2H]C1([2H])c2cc(-n3ccc4cc(F)ccc43)cc(Cl)c2OC([2H])([2H])C([2H])([2H])N1Cc1cc[nH]c(=O)c1 experimental_readout=pIC50 measured_result="6.30 to 7.00"
compound_structure_string=Fc1ccc2c(ccn2-c2cc(Cl)c3c(c2)CN(Cc2ccnc(Cl)c2C(F)(F)F)CCO3)c1 experimental_readout=pIC50 measured_result="6.30 to 7.00"
compound_structure_string=CN(C)c1ncc(CN2CCOc3c(Cl)cc(-n4ccc5cc(F)ccc54)cc3C2)cn1 experimental_readout=pIC50 measured_result="6.00 to 6.30"
compound_structure_string=Cn1ccc(CN2CCOc3c(Cl)cc(-n4ccc5cc(F)ccc54)cc3C2)n1 experimental_readout=pIC50 measured_result="< 5.30"
compound_structure_string=COc1ncc(CN2CCOc3c(Cl)cc(-n4ccc5cc(C)ccc54)cc3C2)cn1 experimental_readout=pIC50 measured_result="6.00 to 6.30"
compound_structure_string=COc1cnc(CN2CCOc3c(Cl)cc(-n4ccc5cc(F)ccc54)cc3C2)cn1 experimental_readout=pIC50 measured_result="5.30 to 6.00"
compound_structure_string=CC(C)(C)OC(=O)Nc1cnc(CN2CCOc3c(Cl)cc(-n4ccc5cc(F)ccc54)cc3C2)cn1 experimental_readout=pIC50 measured_result="< 5.30"
compound_structure_string=O=C1NC=C(CN2CCOc3c(Cl)cc(-n4ccc5cc(F)ccc54)cc3C2)CN1 experimental_readout=pIC50 measured_result="6.00 to 6.30"
compound_structure_string=COc1cc(CN2CCOc3c(Cl)cc(-n4ccc5cc(F)ccc54)cc3C2)cc(OC)n1 experimental_readout=pIC50 measured_result="< 5.30"
compound_structure_string=CC(C)(C)OC(=O)n1cccc1CN1CCOc2c(Cl)cc(-n3ccc4cc(F)ccc43)cc2C1 experimental_readout=pIC50 measured_result="< 5.30"
compound_structure_string=Fc1ccc2c(ccn2-c2cc(Cl)c3c(c2)CN(Cc2ccnc(NC4COC4)n2)CCO3)c1 experimental_readout=pIC50 measured_result="5.30 to 6.00"
compound_structure_string=O=c1ncc(CN2CCOc3c(Cl)cc(-c4cccc5ccccc45)cc3C2)c[nH]1 experimental_readout=pIC50 measured_result="5.30 to 6.00"
compound_structure_string=CN(C)c1cc(CN2CCOc3c(Cl)cc(-n4ccc5cc(F)ccc54)cc3C2)ccn1 experimental_readout=pIC50 measured_result="5.30 to 6.00"
compound_structure_string=O=c1ncc(CN2CCOc3c(Cl)cc(-c4cccc5nccn45)cc3C2)c[nH]1 experimental_readout=pIC50 measured_result="5.30 to 6.00"
compound_structure_string=COc1ncc(CN2CCOc3c(Cl)cc(-n4ccc5cc(F)c(F)cc54)cc3C2)cn1 experimental_readout=pIC50 measured_result="5.30 to 6.00"
compound_structure_string=O=C1CC(CN2CCOc3c(Cl)cc(-n4ccc5cc(F)ccc54)cc3C2)=NN1 experimental_readout=pIC50 measured_result="5.30 to 6.00"
compound_structure_string=O=c1ncc(CN2CCOc3c(Cl)cc(-c4ncc5ccccn45)cc3C2)c[nH]1 experimental_readout=pIC50 measured_result="6.00 to 6.30"
compound_structure_string=Fc1ccc2c(ccn2-c2cc(Cl)c3c(c2)CN(Cc2ccno2)CCO3)c1 experimental_readout=pIC50 measured_result="5.30 to 6.00"
compound_structure_string=Fc1ccc2c(ccn2-c2cc(Cl)c3c(c2)CN(Cc2ccsc2)CCO3)c1 experimental_readout=pIC50 measured_result="< 5.30"
